Where do these numbers come from? They come from ChEMBL document CHEMBL4364292.

- TEST: Terminal half-life in rat at 0.5 mg/kg, iv or 2 mg/kg, po
- Format: ADME, organism-based
- CONDITIONS: in vivo, read-out: beta t1/2 (converted)
OUTCOME MEASURE: half-life (h)

P = C[C@@H]1CC(c2cnc3c(C#N)nn([C@H](C)c4ccc(Cl)cc4Cl)c3n2)=CC[C@@H]1N1CCC[C@H]1CO
Q = C[C@@H]1CN(c2cnc3c(C#N)nn([C@H](C)c4ccc(Cl)cc4Cl)c3n2)CC[C@@H]1N1CCC[C@H]1CO
Task: Consider P and Q . Which of these has its half-life at a higher number? Reply briefly: the label of your chosen item.
Result: P
(P: 4.1 h, Q: 2.1 h)
